Measured EC50, listed per entry for reference.
Target: T1, human NMI (N-myc Interacting protein), recombinant protein (human, UniProt Q13287 1-307, limits assumed)
T1 construct: Gene ID: 9111; also called hNMI; antigen
T1 sequence (looked up): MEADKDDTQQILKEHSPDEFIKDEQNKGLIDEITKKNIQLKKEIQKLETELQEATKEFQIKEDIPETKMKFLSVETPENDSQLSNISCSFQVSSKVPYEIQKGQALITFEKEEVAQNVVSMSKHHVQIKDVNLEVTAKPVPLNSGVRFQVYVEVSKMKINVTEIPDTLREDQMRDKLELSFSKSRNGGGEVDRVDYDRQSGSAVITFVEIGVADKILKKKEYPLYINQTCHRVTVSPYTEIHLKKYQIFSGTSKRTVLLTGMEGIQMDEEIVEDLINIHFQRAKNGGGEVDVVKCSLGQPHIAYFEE
Experiment: ELISA, binding to hNMI
Just the number please, in µg/mL, no unit attached.

98G10-L-1 (antibody, V domains shown, also called 98G10 Y93R (VL)) VH: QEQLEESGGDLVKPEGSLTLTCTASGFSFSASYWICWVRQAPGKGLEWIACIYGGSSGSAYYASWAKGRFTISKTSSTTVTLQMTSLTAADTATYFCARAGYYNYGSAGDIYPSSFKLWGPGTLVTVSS VL: DIVMTQTPASVEAAVGGTVTINCQASQSISTALAWYQQKPGQPPKLLIYTASKVASGVPSRFSGSGSGTQFTLTISDLECADAATYYCQNYYRSSSSITFGGGTEVVVK	0.087

Quick note, EC50 for monoclonal antibody 98G10 (antibody, V domains shown, Rabbit monoclonal antibody) VH: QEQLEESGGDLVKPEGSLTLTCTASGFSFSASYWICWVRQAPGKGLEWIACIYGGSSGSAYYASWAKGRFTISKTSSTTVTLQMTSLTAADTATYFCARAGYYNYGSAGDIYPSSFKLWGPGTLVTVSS VL: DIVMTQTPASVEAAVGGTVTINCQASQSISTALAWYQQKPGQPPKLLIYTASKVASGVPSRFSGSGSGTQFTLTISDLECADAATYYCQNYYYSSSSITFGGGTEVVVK landed at 0.031
